Target: cathepsin D (Homo sapiens, UniProt P07339)
Sequence (P07339 65-412): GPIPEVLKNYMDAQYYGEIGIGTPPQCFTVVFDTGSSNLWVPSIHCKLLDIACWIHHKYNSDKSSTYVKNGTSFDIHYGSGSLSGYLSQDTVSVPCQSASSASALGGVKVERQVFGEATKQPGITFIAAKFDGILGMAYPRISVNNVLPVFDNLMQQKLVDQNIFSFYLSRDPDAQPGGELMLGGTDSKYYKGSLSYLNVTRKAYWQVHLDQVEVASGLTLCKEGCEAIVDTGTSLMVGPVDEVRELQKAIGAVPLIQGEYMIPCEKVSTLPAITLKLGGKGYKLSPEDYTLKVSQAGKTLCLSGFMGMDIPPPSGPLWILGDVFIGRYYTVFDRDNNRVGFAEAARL
Assay: Cathepsin D cuvette assay for IC50 and inhibition constants (Ki)
Assay type: biochemical
Conditions: Table IV; substrate 2.5 μM, cathepsin D 10 nM; Ki ≈ IC50 − Et/2
// assign y if Ki falls strictly below 100 nM, else n (ties count as n)

Field: below-cutoff. Rule: recorded Ki strictly less than 100 nM. Subject: O=C(CCn1c(=O)oc2ccccc21)N[C@@H](Cc1ccccc1)[C@@H](O)CN(CCc1ccc2c(c1)OCO2)C(=O)CCN1C(=O)c2ccccc2C1=O [EHA]
n

Field: below-cutoff. Rule: recorded Ki strictly less than 100 nM. Subject: O=C(CCn1c(=O)oc2ccccc21)N[C@@H](Cc1ccccc1)[C@@H](O)CN(CCc1ccc2c(c1)OCO2)C(=O)CCc1ccc(Cl)c(Cl)c1 [EFA]
n

Field: below-cutoff. Rule: recorded Ki strictly less than 100 nM. Subject: COc1ccc(C(=O)N[C@@H](Cc2ccccc2)[C@@H](O)CN(CCc2ccc3c(c2)OCO3)C(=O)CCN2C(=O)c3ccccc3C2=O)c(Cl)c1OC [EHJ]
n

Field: below-cutoff. Rule: recorded Ki strictly less than 100 nM. Subject: O=C(CCn1c(=O)oc2ccccc21)N[C@@H](Cc1ccccc1)[C@@H](O)CN(CCc1ccc(Cl)cc1Cl)C(=O)CCN1C(=O)c2ccccc2C1=O [FHA]
n

Field: below-cutoff. Rule: recorded Ki strictly less than 100 nM. Subject: O=C(COc1cc(Cl)c(Cl)cc1Cl)N[C@@H](Cc1ccccc1)[C@@H](O)CN(CCc1ccc2c(c1)OCO2)C(=O)CCN1C(=O)c2ccccc2C1=O [EHD]
y
